Assignment: determine reported TGI for the given compounds.
- Tested on: RPMI-8226 leukemia
- Method: NCI tumour cell line growth inhibition, 48 h

Which TGI value belongs to Nc1ccc2c(O)cc(=O)[nH]c2n1 ?
> 100 µM

Which TGI value belongs to Cc1nc2ccc(Nc3nc(Cl)nc(N4CCOCC4)n3)cc2n1Cc1ccccc1 ?
> 100 µM

Which TGI value belongs to CC(C)c1[nH]nc(C(N)=O)c1N=NN(C)C ?
> 100 µM

====

- Test system: KM12 colon
- Method: NCI tumour cell line growth inhibition, 48 h
Assignment: determine reported TGI for the given molecules.

Which TGI value belongs to CC(=O)O[C@H]1C(=O)[C@@]2(C)[C@H]([C@H](OC(=O)c3cccc([N+](=O)[O-])c3)[C@]3(O)C[C@H](OC(=O)[C@H](O)[C@@H](NC(=O)c4ccccc4)c4ccccc4)C(C)=C1C3(C)C)[C@]1(OC(C)=O)CO[C@@H]1C[C@@H]2O ?
> 25 µM

Which TGI value belongs to Cc1nc(N)c(N2CCN(C(=O)O)CC2)c(=O)[nH]1 ?
> 100 µM

Which TGI value belongs to COc1ccc(C2=C(Cl)c3cc(OC)c(OC)cc3C2OC)cc1OC (centres undefined) ?
> 100 µM

Which TGI value belongs to CC(C)OP(=O)(OC(C)C)/C(Cl)=N/Nc1ccc([N+](=O)[O-])cc1 ?
> 100 µM

====

- Tested on: T-47D breast
- Method: NCI tumour cell line growth inhibition, 48 h
Assignment: determine reported TGI for the given compounds.

Which TGI value belongs to Cc1cn([C@@H]2C[C@@H]2CO)c(=O)[nH]c1=O ?
> 100 µM

Which TGI value belongs to c1ccc([P+](CCSCCSCC[P+](c2ccccc2)(c2ccccc2)c2ccccc2)(c2ccccc2)c2ccccc2)cc1 ?
> 100 µM

Which TGI value belongs to COC(=O)C1CCC(=O)N1CN(C(C)=O)c1ccccc1Cl (stereo not drawn) ?
> 100 µM

Which TGI value belongs to Cc1nc(N)c(N2CCN(C(=O)O)CC2)c(=O)[nH]1 ?
> 100 µM

Which TGI value belongs to O=c1oc2ccccc2nc1/C=C(\O)c1ccc(Cl)cc1 ?
> 100 µM

Which TGI value belongs to CC(C)(C)OC(=O)NC(CCCCNC(=O)OCc1ccccc1)C(=O)NCCNc1ccc(NCCNC(=O)C(CCCCNC(=O)OCc2ccccc2)NC(=O)OC(C)(C)C)c2c1C(=O)c1ccccc1C2=O (stereo not drawn) ?
28 µM

Which TGI value belongs to Cc1cc2c(c(C=Nc3ccccc3O)c1)OC1(C=C2)Oc2ccccc2C(=O)N1C (stereo not drawn) ?
8.45 µM

Which TGI value belongs to C=C1CC[C@@H]2[C@](C)(COC(C)=O)[C@H](OC(C)=O)CC[C@@]2(C)[C@@H]1CC(Nc1ccc(S(=O)(=O)NC(C)=O)cc1)C1=CCOC1=O (stereo partly drawn) ?
12 µM

====

- Test system: SK-MEL-2 melanoma
- Method: NCI tumour cell line growth inhibition, 48 h
Readout name: TGI

Which TGI value belongs to COc1ccccc1NC(=S)NN=C(C)c1cccc(C(C)=NNC(=S)Nc2ccccc2OC)n1 ?
> 100 µM

Which TGI value belongs to CC1=CC(=O)C2=C(C)CCC3C(C)C(=O)OC3C12 (stereo not given) ?
> 100 µM

Which TGI value belongs to NS(=O)(=O)c1ccc(Nc2cc(-c3cccc(O)c3)[nH]n2)cc1 ?
> 25 µM

Which TGI value belongs to N#Cc1nc(CCN2C(=O)c3ccccc3C2=O)oc1N ?
> 100 µM

Which TGI value belongs to c1ccc2sc(SCCSc3nc4ccccc4s3)nc2c1 ?
> 100 µM

Origin of the recorded values: PubChem BioAssay (NCI)
